From: patent US20120316071A1

- TARGET_OR_TEST_SYSTEM: T1, Recombinant Human DLL4 (R&D Systems Cat#1506-D4/CF) (human, UniProt Q9NR61 27-524)
- T1 construct: Bought recombinant protein; also called delta-like protein 4; rHuman DLL4
- PROTOCOL_SUMMARY: ECL multispot (MSD) binding assay, DLL4 spotted on plate, purified Fab in solution; Fab concentration not given
Task for the reader: assign each of the following binders its reported ECL signal.

Below is a list of binders. For each, state its recorded ECL signal.
1. Fab VH1-46_IGHD6-6*01_IGHJ1*01 S102A/S103P/S104F/H111F (APFF) & L6_IGKJ1*01 S30T (Fab, V domains shown, Fab expressed in E. coli: VH joined to CH1 (Plasmid A, His6 and Flag tags), VL joined to kappa CL (Plasmid C); also called APFF S30T) VH: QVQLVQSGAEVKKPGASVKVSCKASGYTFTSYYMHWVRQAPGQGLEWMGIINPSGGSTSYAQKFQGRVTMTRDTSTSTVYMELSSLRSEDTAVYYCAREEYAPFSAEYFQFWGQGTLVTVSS VL: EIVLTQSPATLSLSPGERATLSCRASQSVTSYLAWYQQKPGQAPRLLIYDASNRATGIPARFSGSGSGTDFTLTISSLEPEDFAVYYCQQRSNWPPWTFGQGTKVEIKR
2. Fab VH1-46_IGHD6-6*01_IGHJ1*01 S102A/S103P/S104F/H111F (APFF) & L6_IGKJ1*01 S30R (Fab, V domains shown, Fab expressed in E. coli: VH joined to CH1 (Plasmid A, His6 and Flag tags), VL joined to kappa CL (Plasmid C); also called APFF S30R) VH: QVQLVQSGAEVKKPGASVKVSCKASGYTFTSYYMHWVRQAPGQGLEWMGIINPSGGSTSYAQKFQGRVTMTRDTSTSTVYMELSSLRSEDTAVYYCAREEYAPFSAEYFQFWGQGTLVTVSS VL: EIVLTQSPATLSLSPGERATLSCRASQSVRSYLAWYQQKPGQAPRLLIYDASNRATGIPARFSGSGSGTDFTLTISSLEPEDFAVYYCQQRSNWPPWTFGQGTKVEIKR
3. Fab VH1-46_IGHD6-6*01_IGHJ1*01 S102A/S103P/S104F/H111F (APFF) & L6_IGKJ1*01 S30A (Fab, V domains shown, Fab expressed in E. coli: VH joined to CH1 (Plasmid A, His6 and Flag tags), VL joined to kappa CL (Plasmid C); also called APFF S30A) VH: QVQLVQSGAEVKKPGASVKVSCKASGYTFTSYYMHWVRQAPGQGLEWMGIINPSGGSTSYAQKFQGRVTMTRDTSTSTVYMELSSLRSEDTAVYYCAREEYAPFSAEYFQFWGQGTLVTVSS VL: EIVLTQSPATLSLSPGERATLSCRASQSVASYLAWYQQKPGQAPRLLIYDASNRATGIPARFSGSGSGTDFTLTISSLEPEDFAVYYCQQRSNWPPWTFGQGTKVEIKR

Output:
122000
146000
184000

Below is a list of binders. For each, state its recorded ECL signal.
1. Fab VH1-46_IGHD6-6*01_IGHJ1*01 S102A/S103P/S104F/H111F (APFF) & L6_IGKJ1*01 S30Q (Fab, V domains shown, Fab expressed in E. coli: VH joined to CH1 (Plasmid A, His6 and Flag tags), VL joined to kappa CL (Plasmid C); also called APFF S30Q) VH: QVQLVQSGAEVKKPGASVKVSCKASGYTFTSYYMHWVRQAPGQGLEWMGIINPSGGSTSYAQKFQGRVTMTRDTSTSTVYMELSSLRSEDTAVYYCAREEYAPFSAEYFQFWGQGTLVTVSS VL: EIVLTQSPATLSLSPGERATLSCRASQSVQSYLAWYQQKPGQAPRLLIYDASNRATGIPARFSGSGSGTDFTLTISSLEPEDFAVYYCQQRSNWPPWTFGQGTKVEIKR
2. Fab VH1-46_IGHD6-6*01_IGHJ1*01 S102A/S103P/S104F/H111F (APFF) & L6_IGKJ1*01 S28H (Fab, V domains shown, Fab expressed in E. coli: VH joined to CH1 (Plasmid A, His6 and Flag tags), VL joined to kappa CL (Plasmid C); also called APFF S28H) VH: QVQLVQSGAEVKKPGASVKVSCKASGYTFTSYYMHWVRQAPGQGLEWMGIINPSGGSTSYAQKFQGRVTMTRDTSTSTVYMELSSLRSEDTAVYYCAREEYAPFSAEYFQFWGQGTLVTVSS VL: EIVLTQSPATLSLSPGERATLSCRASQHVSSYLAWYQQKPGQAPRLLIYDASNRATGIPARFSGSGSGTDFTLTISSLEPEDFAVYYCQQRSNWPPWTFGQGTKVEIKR

Output:
1: 203000; 2: 209000
